Overview of reported Curve Class across a group of compounds:
Target: CIB1 and αIIb interaction (CIB1-GST : F-αIIb peptide) (Homo sapiens, UniProt Q99828)
Construct: made in house; host or cells: BL-21 plus RIL cells (E. coli)
Sequence (Q99828 whole entry): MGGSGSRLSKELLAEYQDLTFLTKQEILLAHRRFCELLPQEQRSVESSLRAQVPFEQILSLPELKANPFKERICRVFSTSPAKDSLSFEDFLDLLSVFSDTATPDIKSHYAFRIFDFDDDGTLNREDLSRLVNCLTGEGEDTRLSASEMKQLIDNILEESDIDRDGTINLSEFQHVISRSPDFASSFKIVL
Assay: FP assay, 1536-well qHTS format (primary and confirmatory screen)
Assay type: binding
Conditions: qHTS primary screen hits, Table S2; negative sign = inhibitory curve
Give a plain numeric answer without units written out.

O=C(CS)Nc1ccccc1 = -3
OCCN(CCO)c1nc(N2CCCCC2)c2nc(N(CCO)CCO)nc(N3CCCCC3)c2n1 = -1.1

// next item, Curve Class requested
Ask: Query: Curve Class; subject: CN1CCN(c2ccc(Nc3nn4c(=O)c5ccccc5nc4s3)cc2)CC1.O=C(O)C(F)(F)F
Reply: -1.4

====

Target: CIB1 and αIIb interaction (CIB1-GST : F-αIIb peptide) (Homo sapiens, UniProt Q99828)
Construct: made in house; host or cells: BL-21 plus RIL cells (E. coli)
Test: FP assay, 1536-well qHTS format (primary and confirmatory screen)
Assay type: binding
Conditions: qHTS FP screen hits, Table S2; negative = inhibition
Use y when the recorded Efficacy (%) is no lower than -50%; use n when it is lower.

Worked cases, answers included:
COc1ccc2c(c1)C=C1Cn3c-2c(C2CCCCC2)c2ccc(cc23)C(=O)NS(=O)(=O)N(C)CCOCCN(C)C1=O = y
CN1C[C@H](CNC(=O)OCc2ccccc2)C[C@@H]2c3cccc4c3c(cn4C)C[C@H]21 = n
CC1=C(C(=O)Nc2cccc(C(=O)O)c2)C(c2ccccc2Cl)N=C(Nc2nc3ccccc3o2)N1.O=C(O)C(F)(F)F (stereo not shown) = y
COc1ccc(CC(NC(C)=O)C(=O)O)cc1 (stereo not shown) = n
C=C1[C@@H](C)[C@H]2[C@H](Cc3ccccc3)NC(=O)[C@]23OC(=O)/C=C/C(=O)CCC[C@@H](C)C/C=C/[C@H]3[C@@H]1O = n

Now for another entry.
Ask: Identify whether the reported Efficacy (%) of the following compound is -50% or greater: O=C(O)C(F)(F)F.O=S(=O)(Nc1nc2n(n1)C(c1ccccc1)C=C(c1ccc(Cl)cc1)N2)c1ccccc1 (stereo not shown)
Reply: n

====

Target: CIB1 and αIIb interaction (CIB1-GST : F-αIIb peptide) (Homo sapiens, UniProt Q99828)
Construct: made in house; host or cells: BL-21 plus RIL cells (E. coli)
Test: FP assay, 1536-well qHTS format (primary and confirmatory screen)
Format: binding
Conditions: Table S3, confirmatory screen; negative = inhibition
Each entry below carries its reported Efficacy (%) (confirmatory screen).
Only the number, expressed in %, is required.

// worked examples, Efficacy (%) (confirmatory screen) included
O=C(O)C(F)(F)F.O=C1CC(c2ccccc2Cl)c2sc(N3CCOCC3)nc2N1 (stereo not shown) = -49
C[C@@H]1CC[C@]2(C)C3(C)CC[C@@]2(OC3=O)[C@@]12C[C@H](c1ccoc1)OC2=O = -44
CCOc1ccc(CCNC(=O)c2ccc(N3N=C(C)CC3=O)cc2)cc1OCC.O=C(O)C(F)(F)F = -41
O=C(O)c1cc(/N=N/c2ccc(S(=O)(=O)Nc3ccccn3)cc2)ccc1O = -64
O=C(O)C(F)(F)F.O=C1CCCC2=C1C(c1ncccc1C(F)(F)F)N=C(Nc1nc3ccccc3o1)N2 (stereo not shown) = -19

Ask: Quick one: Efficacy (%) (confirmatory screen) of Cc1cc(C(C#N)c2ccc(Cl)cc2)c(Cl)cc1NC(=O)c1cc(I)cc(I)c1O (stereo not shown) ?
Reply: -32

Ask: Find the recorded Efficacy (%) (confirmatory screen) belonging to O=C(O)C(F)(F)F.O=C1CCCC2=C1C(c1ccn[nH]1)N=C(Nc1nc3ccccc3o1)N2 (stereo not shown) and report it.
Reply: -29

Ask: Quick one: Efficacy (%) (confirmatory screen) of CS(=O)(=O)c1ccc(C(=O)OCC(=O)N2CCN(CCC3CCCCC3)CC2)cc1[N+](=O)[O-].O=C(O)C(F)(F)F ?
Reply: -49

Ask: State the recorded Efficacy (%) (confirmatory screen) for this entry: CC[C@@H](c1ccc(F)c(F)c1)n1c(C(=O)OC)c(-c2ccno2)[nH]c1=S
Reply: -22

Ask: Can you look up the measured Efficacy (%) (confirmatory screen) of CN1CCc2ccc3c4c2[C@]1(C)Cc1cccc(c1-4)OCO3 for me?
Reply: -118

Ask: // Efficacy (%) (confirmatory screen) lookup, key: NS(=O)(=O)c1ccc(Nc2nc(-c3ccccc3)cs2)cc1.O=C(O)C(F)(F)F
Reply: -84

Ask: Give the measured Efficacy (%) (confirmatory screen) of Cc1cc(NS(=O)(=O)c2ccc(NC(=O)Cc3cccc4ccccc34)cc2)no1.O=C(O)C(F)(F)F .
Reply: -48

Ask: Request the reported Efficacy (%) (confirmatory screen) associated with CN1CCCN(C(=O)c2cccc(-c3ccc(/C=C4/C(=O)Nc5ccc(Cl)cc54)o3)c2)CC1
Reply: -102

Ask: Any idea what Efficacy (%) (confirmatory screen) was measured for Cc1coc2c1C(=O)C(=O)c1c-2ccc2c1CCCC2(C)C ?
Reply: -67

Ask: Quick check: Efficacy (%) (confirmatory screen) of CC(=O)[O][Hg][c]1ccccc1 ?
Reply: 41

Ask: // lookup Efficacy (%) (confirmatory screen) for O=C(O)C(F)(F)F.Oc1cccc2cc(C3CC3)cnc12
Reply: -17

====

Target: CIB1 and αIIb interaction (CIB1-GST : F-αIIb peptide) (Homo sapiens)
Construct: made in house; host or cells: BL-21 plus RIL cells (E. coli)
Assay: FP assay, 1536-well qHTS format (primary and confirmatory screen)
Type: binding
Details: qHTS primary screen hits, Table S2; read-out: IC50
experimental_endpoint: pIC50
Schema: pIC50 number; meaning minus log10 of the concentration expressed in molar units.

Use the examples below as a reference point.
CC(=O)Nc1sc2c(c1-c1nc3ccccc3s1)CCN(C(C)C)C2 [NCGC00183664-03] = 4.30
O=C(O)C(F)(F)F.O=C1CC(c2ccc(F)cc2F)c2sc(N3CCOCC3)nc2N1 (centres unmarked) [NCGC00488253-02] = 4.30
CC(=O)NCc1ccc(-c2csc(Nc3cc(C)cc(C)c3)n2)o1.O=C(O)C(F)(F)F [NCGC00314997-03] = 4.30
COc1ccc(-c2csc(NC(=O)c3ccncc3NS(=O)(=O)c3ccc(C)cc3)n2)cc1.O=C(O)C(F)(F)F [NCGC00319009-01] = 4.25
Cc1ccc(OCCn2c(CCNC(=O)c3ccsc3)nc3ccccc32)cc1.O=C(O)C(F)(F)F [NCGC00238707-01] = 4.95
Cl.O=c1c2ccccc2nc2sc(Nc3cccc(N4CCNCC4)c3)nn12 [NCGC00187809-01] = 4.35
CC(C)(C)OC(=O)CC(=O)NNC(=O)c1nc2ccccc2[nH]1 [NCGC00181234-01] = 4.40

Now for a further compound.
Ask: # returns recorded pIC50 (system: CIB1 and αIIb interaction (CIB1-GST : F-αIIb peptide) (Homo sapiens)) for Cl.O=S(=O)(Nc1nccs1)c1ccc(NCc2cc(Cl)cc(Br)c2O)cc1 [NCGC00273965-01]
Reply: 4.95

====

Biological target: CIB1 and αIIb interaction (GST-CIB1 : F-αIIb peptide) (Homo sapiens, UniProt Q99828)
Construct: made in house; host or cells: BL-21 plus RIL cells (E. coli)
Test: FP assay, 384-well format (screen)
Assay type: binding
Design: concentration or dose not given beside the values
Settings: F-αIIb peptide
384-well SCREEN Efficacy (%) overview
State just the number; it will be interpreted in %.

Known results for compounds:
Cc1c(C)n(Cc2ccc(-c3ccccc3C(=O)O)cc2)c2ccc(C(=O)N[C@@H](C)c3ccc([N+](=O)[O-])cc3)cc12 = 56
COc1nn(CSP(=S)(OC)OC)c(=O)s1 = 80
O=C1C=CC(=O)N1c1cccc(Br)c1 = 42

Ask: Record lookup: for CIB1 and αIIb interaction (GST-CIB1 : F-αIIb peptide) (Homo sapiens, UniProt Q99828), what 384-well SCREEN Efficacy (%) belongs to CCOC(=O)c1c(NC(=O)C2CC(Cl)=CCC2C(=O)O)sc2c1CCCCC2.O=C(O)C(F)(F)F (centres unmarked) ?
Reply: 15

Ask: Please tell me: 384-well SCREEN Efficacy (%) of Cc1ccc(S(=O)(=O)Nc2cnccc2C(=O)Nc2nc(-c3ccc(C)c(C)c3)cs2)cc1.O=C(O)C(F)(F)F , system CIB1 and αIIb interaction (GST-CIB1 : F-αIIb peptide) (Homo sapiens, UniProt Q99828)?
Reply: 52

Ask: 384-well SCREEN Efficacy (%) of C=CCNc1oc(-c2cccc3ccccc23)nc1C#N.O=C(O)C(F)(F)F on CIB1 and αIIb interaction (GST-CIB1 : F-αIIb peptide) (Homo sapiens, UniProt Q99828)?
Reply: 71

Ask: Provide the documented 384-well SCREEN Efficacy (%) with CIB1 and αIIb interaction (GST-CIB1 : F-αIIb peptide) (Homo sapiens, UniProt Q99828) as the system for Cc1ccc(Cl)cc1NC(=O)c1nc[nH]c1C(=O)Nc1nc2ccccc2[nH]1
Reply: 48

Ask: What is its 384-well SCREEN Efficacy (%) for CIB1 and αIIb interaction (GST-CIB1 : F-αIIb peptide) (Homo sapiens, UniProt Q99828)? Entry: C=CCNc1oc(-c2ccc(-c3ccccc3)cc2)nc1C#N.O=C(O)C(F)(F)F
Reply: 74
